experimentalTarget: T1, Human soluble IL6-R (human, UniProt P08887 20-358)
T1 construct: Bought soluble receptor; biotinylated in some Alphascreen assays; also called sIL6-R; hIL-6R
T1 sequence (looked up): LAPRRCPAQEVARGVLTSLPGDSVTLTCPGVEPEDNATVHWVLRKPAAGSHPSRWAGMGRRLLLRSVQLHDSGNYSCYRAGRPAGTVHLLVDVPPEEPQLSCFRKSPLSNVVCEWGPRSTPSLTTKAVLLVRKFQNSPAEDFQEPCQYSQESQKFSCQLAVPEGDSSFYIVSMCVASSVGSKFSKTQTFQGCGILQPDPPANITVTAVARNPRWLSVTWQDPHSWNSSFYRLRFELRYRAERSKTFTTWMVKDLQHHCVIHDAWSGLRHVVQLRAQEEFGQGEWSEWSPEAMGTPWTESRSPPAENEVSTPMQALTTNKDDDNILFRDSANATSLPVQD
experiment: SPR (Biacore 3000), IL6-R on CM5 chip
measuredQuantity: kon (M⁻¹ s⁻¹)
Unit M⁻¹ s⁻¹ implied. Number only.

- binder: "IL6R82 (VHH, Humanized variant of IL6R13) VHH: EVQLVESGGGLVQPGGSLRLSCAASGFTFDDYGMSWVRQAPGKGLEWVSAISWNGNNTYYTESMKGRFTISRDNAKNTVYLQMNSLRPEDTAVYYCVKGSTAIVGVPPTYPDEYDYWGQGTLVTVSS"
  kon / M⁻¹ s⁻¹: 619000
- binder: "IL6R62 (VHH, Humanized variant of IL6R03) VHH: EVQLVESGGGLVQPGGSLRLSCAASGSIFKVNAMGWYRQAPGKGRELVAGIISGGSTNYADSVKGRFTISRDNAKNTVYLQMNSLRPEDTAVYYCSFVTTNSDYDLGRDYWGQGTLVTVSS"
  kon / M⁻¹ s⁻¹: 929000

Now take the following binder into account.
Ask: Recorded kon for IL6R84 (VHH, Humanized variant of IL6R13) VHH: EVQLVESGGGLVQPGGSLRLSCAASGFTFDDYGMSWVRQAPGKGLEWVSAISWNGNNTYYTESMKGRFTISRDNAKNTLYLQMNSLRPEDTAVYYCVKGSTAIVGVPPTYPDEYDYWGQGTLVTVSS , please?
Reply: 762000
